The reported measurements were obtained from patent US20190071416A1.

molecular target: SMYD3 (Homo sapiens, UniProt Q9H7B4); experiment: SMYD3 biochemical assay (MTase-Glo, MAP3K2 peptide substrate); details: Table 3; MTase assay, MAP3K2 peptide substrate; read-out: IC50
Sequence (Q9H7B4 whole entry): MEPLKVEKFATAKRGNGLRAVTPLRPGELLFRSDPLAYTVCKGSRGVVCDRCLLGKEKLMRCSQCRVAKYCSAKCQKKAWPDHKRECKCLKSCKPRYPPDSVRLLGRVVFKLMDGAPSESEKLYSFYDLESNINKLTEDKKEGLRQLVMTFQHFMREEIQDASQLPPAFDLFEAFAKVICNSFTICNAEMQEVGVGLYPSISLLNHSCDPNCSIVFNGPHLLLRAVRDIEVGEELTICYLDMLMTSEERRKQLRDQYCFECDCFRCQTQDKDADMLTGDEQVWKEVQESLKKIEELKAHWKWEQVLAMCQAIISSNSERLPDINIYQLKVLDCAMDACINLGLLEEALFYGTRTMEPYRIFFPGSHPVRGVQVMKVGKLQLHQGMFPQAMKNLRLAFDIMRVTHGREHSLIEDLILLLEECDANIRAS
outcomeMeasure: IC50 (µM)

1. CCCOC(=O)N1CCN(C(=O)c2ccc3c(Cl)cc(-c4cccc(CN5CCOCC5)c4)nc3c2)CC1; 0.86

(1) CCCOC(=O)N1CCN(C(=O)c2ccc3c(Cl)cc(-c4ccc(C(C)(C)CN(C)C)cc4)nc3c2)CC1
(2) CCCOC(=O)N1CCN(C(=O)c2ccc3c(Cl)cc(-c4cc(C)n(C)c4CN)nc3c2)CC1
(3) CCCOC(=O)N1CCN(C(=O)c2ccc3c(Cl)c4c(nc3c2)CCC(CN(C)C)C4)CC1 (centres unmarked)
List items by IC50 in falling order. In your reply, arrange the labels in the requested order.
3, 2, 1

(1) CCCOC(=O)N1CCN(C(=O)c2ccc3c(Cl)cc(-c4cccc(CN(C)C)c4)nc3c2)CC1
(2) CCCOC(=O)N1CCN(C(=O)c2ccc3c(Cl)c(C)c(-c4ccc(C)cc4)nc3c2)CC1
Compare reported IC50 values for 1 and 2 . Which is lower? Let me know the label of the one you choose.
1
(1: 0.14 µM, 2: 0.67 µM)

(P) CCCOC(=O)N1CCN(C(=O)c2ccc3c(Cl)cc(-c4cccc(N(C)C)c4)nc3c2)C[C@H]1C
(Q) CC(C)(CN)c1ccc(-c2cc(Cl)c3ccc(C(=O)N4CCN(C(=O)c5cn(C6CC6)nn5)CC4)cc3n2)cc1
When P and Q are compared, which has the higher number for IC50? Please indicate the selected item by its label.
P

====

Biological target: SMYD3 (Homo sapiens)
Assay: SMYD3 biochemical assay (MTase-Glo, MAP3K2 peptide substrate)
Conditions: Table 3; MTase assay, MAP3K2 peptide substrate; read-out: IC50
Description: A SMYD3 enzymatic assay was developed using Promega's Methyltransferase-Glo™ reagents. In the assay, SMYD3 catalyzes the methylation of the MAP3K2 peptide substrate by transferring a methyl group from SAM to MAP3K2 peptide and further converts the SAM to SAH. The SMYD3 methyltransferase activity is measured based on the amount of SAH produced from the reaction through the use of coupling enzymes that convert the SAH to ATP. […]
outcomeMeasure: IC50 (nM)

These solved cases illustrate the format of a correct answer.
1. C=CCCC(=O)N1CCN(C(=O)c2ccc3c(Cl)c4c(nc3c2)CCCC4)CC1 [A050]; 3500
2. Cc1cc(C(=O)N2C3CCCC2CN(C(=O)c2ccc4c(Cl)c5c(nc4c2)CCCC5)C3)no1 [A039]; 1300
3. CCCOC(=O)N1CCN(C(=O)c2ccc3c(Cl)c4c(nc3c2)CC(c2ccnc(C#N)c2)CC4)[C@@H](C)C1 (stereo partly shown) [A143]; 460
4. CCCOC(=O)N1CCN(C(=O)c2ccc3c(Cl)cc(-c4ccc(C(C)(C)CN)cc4)nc3c2)C[C@H]1C [B282]; 13
5. CCCNC(=O)N1CCN(C(=O)c2ccc3c(Cl)c4c(nc3c2)CCCC4)CC1 [A049]; 6400
6. CCCOC(=O)N1CCN(C(=O)c2ccc3c(Cl)cc(-c4ccn(S(C)(=O)=O)c4)nc3c2)CC1 [B252]; 520
7. CCCOC(=O)N1CCN(C(=O)c2ccc3c(Cl)cc(-c4ccc5c(cnn5C)c4)nc3c2)C[C@H]1C [B086]; 11

(a) CCCOC(=O)N1CCN(C(=O)c2ccc3c(Cl)cc(-c4ccc(COCC)cc4)nc3c2)CC1 [B256]
(b) CCCOC(=O)N1CCN(C(=O)c2ccc3c(Cl)cc(-c4cnn(CC(N)=O)c4)nc3c2)CC1 [B249]
(c) CCCOC(=O)N1CCN(C(=O)c2ccc3c(Cl)cc(-c4ccc(C(N)=O)cc4)nc3c2)C[C@@H]1C [B146]
Order field: IC50 | Direction: descending (largest first) When ranking, write the labels in the order the request describes.
a, b, c
